Hi there, I'd appreciate the recorded remaining proliferation (% of control), lower = more inhibition for every entry that follows.
# assay remarks: qHTS profiling for inhibitors of Plasmodium falciparum (HB3) proliferation (AID 743324);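 also: 100% = DMSO vehicle wells and 0% = artemisinin-treated control wells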
# details: Plasmodium falciparum HB3 blood-stage proliferation; at 28.7 µM (top of the series)
One number for each entry, in %.

INSERT INTO assay_data (compound, quantitative_result) VALUES
  ('Oc1cc(Cl)ccc1Oc1ccc(Cl)cc1Cl', 1.17),
  ('COC[C@H]1OC(=O)c2coc3c2[C@@]1(C)C1=C(C3=O)C2CCC(=O)[C@@]2(C)C[C@H]1OC(C)=O (some centres undefined)', 74),
  ('CC(O)(CS(=O)(=O)c1ccc(F)cc1)C(=O)Nc1ccc(C#N)c(C(F)(F)F)c1 (centres undefined)', 70.9),
  ('Oc1cn2c(n1)Nc1ccc(Cl)c(Cl)c1C2', 97.7),
  ('Cc1cc(SCc2sc(-c3ccc(C(F)(F)F)c(F)c3)nc2C)ccc1OCC(=O)O', 82.6),
  ('C[C@@H]1[C@@H](C(=O)C[C@H]2O[C@@H]3O[C@]4(C)CC[C@@H]5[C@H](C)CC[C@@H]([C@H]2C)[C@@]35OO4)O[C@@H]2O[C@]3(C)CC[C@H]4[C@H](C)CC[C@@H]1[C@@]24OO3', 0.763),
  ('CNC(=O)N1N=C(c2ccc(N)cc2)c2cc3c(cc2CC1C)OCO3 (centres undefined)', 83.9),
  ('CN(C)CCN(C)CCc1ccc(Cl)c(Cl)c1', 36.8);

// next item, remaining proliferation (% of control), lower = more inhibition requested
Ask: Please look up its remaining proliferation (% of control), lower = more inhibition: CNC(=O)c1ccc(N2C(=S)N(c3ccc(C#N)c(C(F)(F)F)c3)C(=O)C23CCC3)cc1F
Result: 43.8
